B1: tRNA (parent)
chain: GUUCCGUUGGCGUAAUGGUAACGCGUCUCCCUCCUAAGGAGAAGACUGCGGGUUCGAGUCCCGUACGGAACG

Variants of: B1
measurementDescription: yeast fitness relative to wild type (ratio to wild type); higher = fitter; tRNA-Arg(CCU), competitive growth, 37 C, YPD
Fewer inactive variants are shown than the library holds.
Assign True whenever yeast fitness does not fall below 0.6; assign False whenever it does.

sequencevariant="U3C G68U" categorylabel=True
sequencevariant="G17A G48C C62A" categorylabel=False
sequencevariant="U7A C22U C66G G68C" categorylabel=False
sequencevariant="U35A G41A C55U" categorylabel=False
sequencevariant="C34A A45C A70C" categorylabel=True
sequencevariant="C46U G50A C61U" categorylabel=True
sequencevariant="U8G A45C" categorylabel=False
sequencevariant="U8A C61A G67C" categorylabel=False
sequencevariant="C27U C29U C62U" categorylabel=False
sequencevariant="C27A A45U" categorylabel=True
sequencevariant="A40U U53A C61U" categorylabel=False
sequencevariant="G18A A42G" categorylabel=True
sequencevariant="C24A U26G C61U" categorylabel=False
sequencevariant="U2A C29A A42G C49U U54A C60G G68A" categorylabel=False
sequencevariant="U13C U53C" categorylabel=True
sequencevariant="U32G G39C C62G G68A" categorylabel=False
sequencevariant="A42G U47A" categorylabel=True
sequencevariant="U8A C11U U19C C46A C66U" categorylabel=False
sequencevariant="U8A A14C C31A G41C C49A G56A A70C" categorylabel=False
sequencevariant="C27G C60U C61G" categorylabel=True
sequencevariant="C5U C34U U35C A70C" categorylabel=False
sequencevariant="C55U G67A" categorylabel=True
sequencevariant="U3A U26C U59C" categorylabel=False
sequencevariant="U13C A36C C66U" categorylabel=False
sequencevariant="U35C U59A A70C" categorylabel=False
sequencevariant="G18C G23C G39A" categorylabel=False
sequencevariant="A20C A65C" categorylabel=True
sequencevariant="G17C U32C A42U" categorylabel=False
sequencevariant="C5U G39A A45C" categorylabel=True
sequencevariant="U26C U28C" categorylabel=True
sequencevariant="G12A U13A A42C A70U" categorylabel=False
sequencevariant="C11G A14G" categorylabel=False
sequencevariant="U3G A40G C46A" categorylabel=True
sequencevariant="G18A C55G" categorylabel=False
sequencevariant="C4U A14G A45C" categorylabel=False
sequencevariant="U16C U28C C55U A57C G58A" categorylabel=False
sequencevariant="G17C U19A A36C A37U C60G G67C" categorylabel=False
sequencevariant="C11U G25C A40U C49U" categorylabel=False
sequencevariant="U3C C33U" categorylabel=True
sequencevariant="G9A A37C C62G" categorylabel=False
sequencevariant="G10C G18A G58A C66G" categorylabel=False
sequencevariant="G12C A36C G50A" categorylabel=False
sequencevariant="C5G U7A A20C C46U" categorylabel=False
sequencevariant="C24A A36C G41A U53C" categorylabel=False
sequencevariant="U28A A65G" categorylabel=True
sequencevariant="G41C C46A C55G" categorylabel=False
sequencevariant="U16C C29U C62U" categorylabel=False
sequencevariant="A20U A36G C55G" categorylabel=False
sequencevariant="G25A C55U" categorylabel=True
sequencevariant="U53A A70C" categorylabel=True
sequencevariant="U7A G10C C30G A36U" categorylabel=False
sequencevariant="C5G A15C G18C C49U U64A A69U" categorylabel=False
sequencevariant="G10C C29U A40U A65U" categorylabel=False
sequencevariant="C4G C31A G58A" categorylabel=True
sequencevariant="C22A U59C" categorylabel=True
sequencevariant="G38C A40C" categorylabel=True
sequencevariant="C5A C31A A37C C46U" categorylabel=False
sequencevariant="U8G C62G" categorylabel=False
sequencevariant="A20G G41A" categorylabel=True
sequencevariant="U26C C31U" categorylabel=True
sequencevariant="A40U A43G A65U" categorylabel=True
sequencevariant="A15G G44C A65C" categorylabel=False
sequencevariant="G25A C29A A42G" categorylabel=False
sequencevariant="C34G A69U A70C" categorylabel=True
sequencevariant="A20G A36U C49G" categorylabel=False
sequencevariant="U3A C5G A14G C24A G51C G52C" categorylabel=False
sequencevariant="A43G U47A C49A" categorylabel=False
sequencevariant="A14U C22A U28A C30U U53A U54C" categorylabel=False
sequencevariant="U2A G48A G50C U59C C60A" categorylabel=False
sequencevariant="U2G U35G A45G C49G U59C C60U A69C" categorylabel=True
sequencevariant="U7A C34G U59G G68U" categorylabel=False
sequencevariant="C22G G25C C61G" categorylabel=True
sequencevariant="C5U A14G U26C" categorylabel=True
sequencevariant="U16C G44C C66U" categorylabel=False
sequencevariant="G52A A57G" categorylabel=True
sequencevariant="G10C A36C G48A C62U" categorylabel=False
sequencevariant="G9A G63C" categorylabel=True
sequencevariant="A21C C31A" categorylabel=True
sequencevariant="A15C G48A A57G" categorylabel=False
sequencevariant="G25A C46A" categorylabel=True
sequencevariant="G48C C61G A65U" categorylabel=False
sequencevariant="U3C G12A C33G A42C A65G" categorylabel=False
sequencevariant="C5U G25C C29A" categorylabel=False
sequencevariant="C4A C31U A42C C66A" categorylabel=False
sequencevariant="U7C C46U U59G G67U" categorylabel=False
sequencevariant="A14C C60G A70U" categorylabel=False
sequencevariant="G25A A42U A65C G67U" categorylabel=False
sequencevariant="C34U C49G G52C C55U C62G" categorylabel=True
sequencevariant="G18C G48A C55A" categorylabel=False
sequencevariant="C24U A36U C55G A57G G63C" categorylabel=False
